The reported numbers originate from paper PMC12088000.

Experimental target: InhA enzyme from M. tuberculosis (Mycobacterium tuberculosis, UniProt P9WGR1)
Sequence (P9WGR1 whole entry, looked up): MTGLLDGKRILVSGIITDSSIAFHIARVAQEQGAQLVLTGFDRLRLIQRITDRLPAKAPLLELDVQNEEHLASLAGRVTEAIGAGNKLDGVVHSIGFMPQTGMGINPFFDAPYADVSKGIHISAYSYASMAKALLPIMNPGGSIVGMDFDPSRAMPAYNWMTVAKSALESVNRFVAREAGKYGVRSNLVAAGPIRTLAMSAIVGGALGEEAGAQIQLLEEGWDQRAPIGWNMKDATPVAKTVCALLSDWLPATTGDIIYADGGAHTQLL
Test protocol: InhA inhibition assay
Format: biochemical
Condition info: read-out: % InhA Inhibition at 50 µM
// thresholds for inhibition at 50 µM classes: Low: < 20%; Medium: ≥ 20% and < 30%; High: ≥ 30%

Recorded results for 4 molecules are shown here.
Molecule | Label value
CC(=NNC(=O)COC(=O)c1ccc(-n2cccc2)cc1)c1ccccc1 [Compound 5a] | Medium
NNC(=O)c1ccncc1 [Isoniazid, reference compound] | High
O=C(OCC(=O)n1[nH]c(=O)c2c(Br)c(Br)c(Br)c(Br)c2c1=O)c1ccc(-n2cccc2)cc1 [Compound 4c] | High
CC(=NNC(=O)COC(=O)c1ccc(-n2cccc2)cc1)c1cccc([N+](=O)[O-])c1 [Compound 5g] | High

Lookup: State the band of CC(=NNC(=O)COC(=O)c1ccc(-n2cccc2)cc1)c1ccc(O)cc1 [Compound 5j]
Found: High

Lookup: State the band of CC(=NNC(=O)COC(=O)c1ccc(-n2cccc2)cc1)c1ccc(F)cc1 [Compound 5l]
Found: High

Lookup: State the band of O=C(COC(=O)c1ccc(-n2cccc2)cc1)NN=Cc1ccccc1 [Compound 6a]
Found: Low

Lookup: State the band of C/C(=N\NC(=O)COC(=O)c1ccc(-n2cccc2)cc1)c1ccc(Br)cc1 [Compound 5b]
Found: Medium

Lookup: State the band of Cc1cc(=O)n(C(=O)COC(=O)c2ccc(-n3cccc3)cc2)[nH]c1=O [Compound 4f]
Found: Medium

Lookup: State the band of CC(=NNC(=O)COC(=O)c1ccc(-n2cccc2)cc1)c1cccc(Br)c1 [Compound 5f]
Found: High

Lookup: State the band of O=C(COC(=O)c1ccc(-n2cccc2)cc1)NN=Cc1ccc(Cl)cc1 [Compound 6d]
Found: Low

Lookup: State the band of CC(=NNC(=O)COC(=O)c1ccc(-n2cccc2)cc1)c1cccc(Cl)c1 [Compound 5k]
Found: High

Lookup: State the band of O=C(OCC(=O)n1[nH]c(=O)c2ccccc2c1=O)c1ccc(-n2cccc2)cc1 [Compound 4a]
Found: High

Lookup: State the band of O=C(COC(=O)c1ccc(-n2cccc2)cc1)NN=Cc1ccc([N+](=O)[O-])cc1 [Compound 6c]
Found: Low

Lookup: State the band of O=C(OCC(=O)n1[nH]c(=O)c2c(Cl)c(Cl)c(Cl)c(Cl)c2c1=O)c1ccc(-n2cccc2)cc1 [Compound 4b]
Found: Medium

###

Experimental target: MtDHFR (Mycobacterium tuberculosis)
pIC50: −log10 of the molar value.
Label TRUE when pIC50 is at or above 4; otherwise label FALSE.

Structure smiles | Experimental target | Label value
CC(=NNC(=O)COC(=O)c1ccc(-n2cccc2)cc1)c1cccc(Cl)c1 | MtDHFR (Mycobacterium tuberculosis) | TRUE
CC(=NNC(=O)COC(=O)c1ccc(-n2cccc2)cc1)c1ccc(O)cc1 | MtDHFR (Mycobacterium tuberculosis) | TRUE
O=C(COC(=O)c1ccc(-n2cccc2)cc1)NN=Cc1ccccc1 | MtDHFR (Mycobacterium tuberculosis) | FALSE

# input for lookup
Lookup: Form field: pIC50 at least 4? Entry: "O=C(OCC(=O)n1[nH]c(=O)c2c(Br)c(Br)c(Br)c(Br)c2c1=O)c1ccc(-n2cccc2)cc1"
Found: TRUE

###

Test system: human lung cancer cell line A549
Test protocol: MTT-based cytotoxicity
Type: cell-based
Condition info: Homo sapiens, A549; MTT assay
Attribute measured: IC50 (µg/mL)
Numbers only; they are read as µg/mL.

Below, each entry is followed by its recorded IC50 result.
Structure smiles | Experimental target | Reading unit | IC50
Cc1cc(=O)n(C(=O)COC(=O)c2ccc(-n3cccc3)cc2)[nH]c1=O | human lung cancer cell line A549 | µg/mL | 258
O=C(COC(=O)c1ccc(-n2cccc2)cc1)NN=Cc1ccccc1 | human lung cancer cell line A549 | µg/mL | 244

Now let's try a different one.
Lookup: // fetch IC50 given entry "O=C(OCC(=O)n1[nH]c(=O)c2c(Cl)c(Cl)c(Cl)c(Cl)c2c1=O)c1ccc(-n2cccc2)cc1"
Found: 319

###

Experimental target: UniProt P9WNX1
Mark yes (1) only for IC50 values smaller than 70 µM; exact matches and larger values are no (0).

Structure smiles | Label value
CC(=NNC(=O)COC(=O)c1ccc(-n2cccc2)cc1)c1cccc([N+](=O)[O-])c1 | no (0)

Lookup: Is IC50 strictly under 70 µM for the entry "CC(=NNC(=O)COC(=O)c1ccc(-n2cccc2)cc1)c1cccc(O)c1" ?
Found: no (0)

Lookup: Is IC50 strictly under 70 µM for the entry "O=C(COC(=O)c1ccc(-n2cccc2)cc1)NN=Cc1ccccc1Br" ?
Found: no (0)

Lookup: Is IC50 strictly under 70 µM for the entry "O=C(OCC(=O)n1[nH]c(=O)c2c(Cl)c(Cl)c(Cl)c(Cl)c2c1=O)c1ccc(-n2cccc2)cc1" ?
Found: yes (1)

###

Consider the following compounds and their measured IC50 readings.
Test system: human lung cancer cell line A549
Test protocol: MTT-based cytotoxicity
Assay type: cell-based
Condition info: Homo sapiens, A549; MTT assay
Numbers only; they are read as µg/mL.

Below, each entry is followed by its recorded IC50 result.
Compound | Reading unit | IC50
CC(=NNC(=O)COC(=O)c1ccc(-n2cccc2)cc1)c1cccc(Cl)c1 [Compound 5k] | µg/mL | 229
CC(=NNC(=O)COC(=O)c1ccc(-n2cccc2)cc1)c1cccc([N+](=O)[O-])c1 [Compound 5g] | µg/mL | 249
O=C(OCC(=O)n1[nH]c(=O)c2ccccc2c1=O)c1ccc(-n2cccc2)cc1 [Compound 4a] | µg/mL | 315

Lookup: // fetch IC50 given entry CC(=NNC(=O)COC(=O)c1ccc(-n2cccc2)cc1)c1ccc(F)cc1 [Compound 5l]
Found: 241

###

Observed pIC50 for MtDHFR (Mycobacterium tuberculosis), reported per entry below.
On this scale, pIC50 is minus log10 of a concentration expressed in M (mol/L).

Below, each entry is followed by its recorded pIC50 result.
Molecule | Observed value
CC(=NNC(=O)COC(=O)c1ccc(-n2cccc2)cc1)c1ccc(Cl)cc1 [Compound 5c] | 4.00
O=C(COC(=O)c1ccc(-n2cccc2)cc1)NN=Cc1ccc([N+](=O)[O-])cc1 [Compound 6c] | 3.88
O=C1CCC(=O)N(C(=O)COC(=O)c2ccc(-n3cccc3)cc2)N1 [Compound 4d] | 4.51

Lookup: Under MtDHFR (Mycobacterium tuberculosis), report pIC50 for C=C1CC(=O)N(C(=O)COC(=O)c2ccc(-n3cccc3)cc2)NC1=O [Compound 4g]
Found: 4.25

###

Consider the following molecules and their measured IC50 readings.
Test system: human lung cancer cell line A549
Test protocol: MTT-based cytotoxicity
Type: cell-based
Condition info: Homo sapiens, A549; MTT assay
Numbers only; they are read as µg/mL.

Lookup: Under human lung cancer cell line A549, report IC50 for CC(=NNC(=O)COC(=O)c1ccc(-n2cccc2)cc1)c1ccc(O)cc1 [Compound 5j]
Found: 255

Lookup: Under human lung cancer cell line A549, report IC50 for O=C(COC(=O)c1ccc(-n2cccc2)cc1)NN=Cc1ccc([N+](=O)[O-])cc1 [Compound 6c]
Found: 296

Lookup: Under human lung cancer cell line A549, report IC50 for C/C(=N\NC(=O)COC(=O)c1ccc(-n2cccc2)cc1)c1ccc(Br)cc1 [Compound 5b]
Found: 266

###

Experimental target: MtDHFR (Mycobacterium tuberculosis)
Test protocol: biochemical
Format: biochemical
Attribute measured: pIC50
On this scale, pIC50 is minus log10 of a concentration expressed in M (mol/L).

Below, each entry is followed by its recorded pIC50 result.
Structure smiles | Observed value
C/C(=N\NC(=O)COC(=O)c1ccc(-n2cccc2)cc1)c1ccc(Br)cc1 | 4.64
O=C(COC(=O)c1ccc(-n2cccc2)cc1)NN=Cc1ccc(Cl)cc1 | 4.21

Now let's try a different one.
Lookup: Under MtDHFR (Mycobacterium tuberculosis), report pIC50 for "CC(=NNC(=O)COC(=O)c1ccc(-n2cccc2)cc1)c1ccc(F)cc1"
Found: 4.19

###

Experimental target: MtDHFR (Mycobacterium tuberculosis, UniProt P9WNX1)
Sequence (P9WNX1 whole entry): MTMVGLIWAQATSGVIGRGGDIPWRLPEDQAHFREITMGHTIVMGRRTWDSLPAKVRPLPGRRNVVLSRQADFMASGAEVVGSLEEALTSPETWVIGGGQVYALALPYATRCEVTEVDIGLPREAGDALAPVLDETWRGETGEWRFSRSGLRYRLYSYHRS
Consider the following compounds and their measured pIC50 readings.
On this scale, pIC50 is minus log10 of a concentration expressed in M (mol/L).

Below, each entry is followed by its recorded pIC50 result.
Structure smiles | pIC50
O=C(OCC(=O)n1[nH]c(=O)ccc1=O)c1ccc(-n2cccc2)cc1 | 4.49
CC(=NNC(=O)COC(=O)c1ccc(-n2cccc2)cc1)c1ccc(C)cc1 | 3.93
CC(=NNC(=O)COC(=O)c1ccc(-n2cccc2)cc1)c1ccc(Cl)cc1Cl | 4.03
O=C(OCC(=O)n1[nH]c(=O)c2ccccc2c1=O)c1ccc(-n2cccc2)cc1 | 4.64

Lookup: Under MtDHFR (Mycobacterium tuberculosis, UniProt P9WNX1), report pIC50 for "CC(=NNC(=O)COC(=O)c1ccc(-n2cccc2)cc1)c1ccccc1"
Found: 4.02
